These measurements were taken from ChEMBL document CHEMBL1961873.

Target: Serine/threonine-protein kinase MARK1 (Homo sapiens);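 further: reported values are mean percent inhibition of MARK1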
Conditions: at 1 µM
OUTCOME_MEASURE: inhibition (%)
# value in %; strip the unit string

Fc1ccc(-c2nn3ccccc3c2-c2ccncc2)cc1: 2.2

Let's switch to this molecule now.
Lookup: For the molecule shown here, Clc1ccc(-c2nn3ncccc3c2-c2ccnc(Nc3ccccc3)n2)cc1 , give the reported inhibition.
Found: 0.37

###

Overview of reported inhibition across a group of molecules:
Target: Fibroblast growth factor receptor 3 (Homo sapiens) (UniProt P22607);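 further: values reported are mean percent inhibition of FGFR3 activity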
Sequence (P22607 23-806 limits assumed): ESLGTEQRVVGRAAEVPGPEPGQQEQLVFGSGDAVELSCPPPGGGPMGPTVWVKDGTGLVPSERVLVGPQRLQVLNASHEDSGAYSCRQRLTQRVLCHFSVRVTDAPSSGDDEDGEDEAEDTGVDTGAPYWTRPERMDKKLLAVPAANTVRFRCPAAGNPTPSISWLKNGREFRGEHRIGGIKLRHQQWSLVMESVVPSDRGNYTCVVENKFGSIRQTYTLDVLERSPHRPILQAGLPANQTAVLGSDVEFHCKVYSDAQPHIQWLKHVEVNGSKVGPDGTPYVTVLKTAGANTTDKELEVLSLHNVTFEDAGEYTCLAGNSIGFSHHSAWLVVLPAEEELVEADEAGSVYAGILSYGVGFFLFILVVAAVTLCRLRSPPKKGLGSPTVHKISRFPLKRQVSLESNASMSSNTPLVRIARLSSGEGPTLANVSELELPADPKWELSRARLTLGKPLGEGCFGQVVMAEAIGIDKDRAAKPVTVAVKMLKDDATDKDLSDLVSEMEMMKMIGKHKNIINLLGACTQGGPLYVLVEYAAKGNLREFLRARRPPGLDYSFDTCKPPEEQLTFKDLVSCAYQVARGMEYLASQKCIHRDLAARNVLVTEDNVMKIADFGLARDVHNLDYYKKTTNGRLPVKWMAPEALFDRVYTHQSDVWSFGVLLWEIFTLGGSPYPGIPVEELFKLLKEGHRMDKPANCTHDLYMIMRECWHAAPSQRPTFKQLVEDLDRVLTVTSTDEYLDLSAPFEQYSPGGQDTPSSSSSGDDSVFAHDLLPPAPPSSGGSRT
Settings: at 1 µM
# value in %; strip the unit string

Below are worked cases with known answers.
Clc1ccc(-c2nn3ncccc3c2-c2ccnc(Nc3ccccc3)n2)cc1: 6
c1ccc(-c2nc3n(c2-c2ccc4c(c2)OCO4)CCC3)nc1: 1.25
COc1ccc(CNC(=O)c2ccc(-c3cc(-c4nnc(C)o4)ccc3C)cc2)cc1: 5.29

Let's switch to this molecule now.
Lookup: For the molecule shown here, CC1=C(C(=O)Nc2cc(Cl)c3[nH]ncc3c2)C(c2ccc(C(F)(F)F)cc2)CC(=O)N1 (centres undefined) , give the reported inhibition.
Found: 3.77
